log10 of IC50 values for Amine oxidase [flavin-containing] A (Rattus norvegicus), compiled from several publications.
Quantity Measured: log10 of IC50 (log10 of the value in µM)

>>> meas_value("CCCNc1cncc(N(C)CCC)c1CN")
1.00
>>> meas_value("COC(=O)[C@H](CC(C)C)NC(=O)C(=O)c1ccccc1NC(C)=O")
-1.14
>>> meas_value("Cc1c(-c2ccccc2)nnc2c1C(=O)c1ccccc1-2")
2.00
>>> meas_value("COc1ccc(NC(=S)N2N=C(c3ccc(O)cc3O)CC2c2ccc(O)cc2)cc1 (stereo not drawn)")
1.84
>>> meas_value("O=C(O)Cc1cccc2c1S(=O)(=O)c1ccccc1O2")
1.48
>>> meas_value("OCCCCn1nnc(-c2ccc(-c3ccccc3)cc2)n1")
1.11
>>> meas_value("O=c1ccc2ccccc2o1")
1.61
>>> meas_value("COc1cc(C2CC(c3ccc(O)cc3O)=NN2C(=S)Nc2ccccc2OC)ccc1O (stereo not drawn)")
2.26
>>> meas_value("CCNc1cc(=O)oc2cc(OCc3cccc(Cl)c3)ccc12")
0.97
>>> meas_value("Cn1c(N/N=C(/C=C/c2cccc(Cl)c2)c2ccccc2)nc2ccccc2c1=O")
2.67
>>> meas_value("NC(=O)[C@@H](NCc1ccc(OCc2cccc(F)c2)cc1)c1ccccc1")
1.53
>>> meas_value("Oc1ccc(C2CC(c3ccccc3O)=NN2C(=S)Nc2ccccc2)cc1 (stereo not drawn)")
1.83
>>> meas_value("O=C(NCCN1CCOCC1)c1cnc(O)c(Cl)c1")
-1.35
>>> meas_value("CNC(=O)/C=C1/COc2cc(OS(=O)(=O)c3ccc(C#N)cc3)ccc21")
-1.35
>>> meas_value("COc1cc(C2CC(c3ccc(O)cc3O)=NN2C(=S)Nc2ccccc2)ccc1O (stereo not drawn)")
1.82
>>> meas_value("COc1c(OC2CCCCC2=O)ccc2c(C)cc(=O)oc12 (stereo not drawn)")
1.05
>>> meas_value("O=c1cc(CCO)c2ccc(OCc3cccc(Cl)c3)cc2o1")
0.67
>>> meas_value("COC(=O)C1(NC(=O)c2ccc(NC(=O)C(=O)c3ccccc3NC(C)=O)cc2)CCCC1")
-1.32
>>> meas_value("NC(=O)[C@@H]1CCCN1Cc1cc(=O)oc2cc(OCc3ccccc3)ccc12")
1.54
>>> meas_value("O=C1c2ccccc2-c2nnc(-c3cccc(O)c3)cc21")
0.00
